Kinact values recorded for UniProt:Q16790
Answers are plain numbers, in nM.

Field: example entries. Status: answers known.
smi | result_type | unit_of_measurement | readout_number
NS(=O)(=O)c1ccc(CCNC(=O)CN(CC(=O)O)S(=O)(=O)c2ccc(-c3ccccc3)cc2)cc1 | Kinact | nM | 3.8
NS(=O)(=O)c1ccc(CCNC(=O)CN(CC(=O)O)S(=O)(=O)c2ccc(Oc3ccccc3)cc2)cc1 | Kinact | nM | 6.4
COc1ccc(S(=O)(=O)N(CC(=O)NO)CC(=O)NCCc2ccc(S(N)(=O)=O)cc2)cc1 | Kinact | nM | 13

Exercise: Any idea what Kinact was measured for `NC(=O)NO` ?
Solution: 23000

----------
Kinact values recorded for Carbonic anhydrase 1 (Homo sapiens)
Numbers only, in nM.

smi | readout_number
NS(=O)(=O)c1ccc(CCNC(=O)CN(CC(=O)O)S(=O)(=O)c2ccc(Oc3ccccc3)cc2)cc1 | 3430
NS(=O)(=O)c1ccc(CCNC(=O)CN(CC(=O)NO)Cc2ccccc2)cc1 | 2340
COc1ccc(S(=O)(=O)N(CC(=O)NO)CC(=O)NCCc2ccc(S(N)(=O)=O)cc2)cc1 | 1760

Now for another entry.
Exercise: Any idea what Kinact was measured for `NS(=O)(=O)c1ccc(CCNC(=O)CN(CC(=O)O)S(=O)(=O)c2ccc(-c3ccccc3)cc2)cc1` ?
Solution: 116
